Measured values drawn from paper PMC7376718 for this set.

Tested on: E. coli (B1989/17) isolate from equine urine, E. coli (2)
Test: MIC, serial microdilution with INT
Assay type: cell-based
Conditions: Escherichia coli, read-out: Minimum inhibitory concentration
assay_readout: MIC (µg/mL)
The response must be a number in µg/mL with no trailing unit.

GET MIC | system: E. coli (B1989/17) isolate from equine urine, E. coli (2) | item: COc1ccc(-c2oc3cc(OC)cc(O)c3c(=O)c2OC)cc1 [Compound 3, 5-hydroxy-3,7,4′-trimethoxyflavone]
250

Please find the next molecule below.
GET MIC | system: E. coli (B1989/17) isolate from equine urine, E. coli (2) | item: CNC(C)C1CCC(N)C(OC2C(N)CC(N)C(OC3OCC(C)(O)C(NC)C3O)C2O)O1 (stereo not drawn) [Gentamicin, gentamicin, reference compound]
31
